Ref: the supplement of paper PMC7125110

B1: glmS ribozyme (parent)
chain: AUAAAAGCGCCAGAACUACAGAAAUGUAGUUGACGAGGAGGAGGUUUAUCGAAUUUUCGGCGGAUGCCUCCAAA

# Variants of: B1
# assay method text: self-cleavage kobs at 10000 uM GlcN6P; higher = faster cleavage; RNA array
# test settings: with glucosamine-6-phosphate
Fewer inactive variants are shown than the library holds.
endpoint: self-cleavage kobs at 10000 uM GlcN6P (s⁻¹)

biosequence: AUAAAAGCGCCAGCACUACAGAAAUGUAGUUGACGAGGAGGAGGUUUAUCGAAUUUUCGGCGGAAGCCUCCAAA [A14C U65A]
endpoint: self-cleavage kobs at 10000 uM GlcN6P
inequality symbol: =
reported value: 0.000453
--
biosequence: AUAAAAGCGCCGGAACUACAGAAAUGUAGUUGACGAGGAGGAGGUUUAUCGAUUUUUCGGCGGAUGCCUCCAAA [A12G A53U]
endpoint: self-cleavage kobs at 10000 uM GlcN6P
inequality symbol: =
reported value: 0.00058
--
biosequence: AUAAAAGCGCCAGAACUACAGAAAUGUAGUUGACGAGGAGGAGGUCUAUCGAAUUUUCGGCGGAUGCCUGCAAA [U46C C70G]
endpoint: self-cleavage kobs at 10000 uM GlcN6P
inequality symbol: =
reported value: 0.000346
--
biosequence: AUAAAAGCGCCCGAACUACAGAAAUGUAGUUGACGAGGAGGAGGCUUAUCGAAUUUUCGGCGGAUGCCUCCAAA [A12C U45C]
endpoint: self-cleavage kobs at 10000 uM GlcN6P
inequality symbol: =
reported value: 0.00194
--
biosequence: AUAAAAGCGCCAGAACUACAGAAAUGUAGUUGACGAGGAGGGGGUUUUUCGAAUUUUCGGCUGAUGCCUCUAAA [A42G A48U G62U C71U]
endpoint: self-cleavage kobs at 10000 uM GlcN6P
inequality symbol: <
reported value: 1e-05
--
biosequence: AUAAAAGAGCCAGAGCUACAGAAAUGUAGUUGACGAGGCGGAGGUUUAUCGAAUUUUCGGCGGAUGCCUGCAAA [C8A A15G A39C C70G]
endpoint: self-cleavage kobs at 10000 uM GlcN6P
inequality symbol: <
reported value: 1e-05
--
biosequence: AUAAAAGCGCCAGGACUACAGAAAUGUAGUUGACGAGGAGGUGGUUUAUCGAAUUUUCGGCGGAUGCCUCCAAA [A14G A42U]
endpoint: self-cleavage kobs at 10000 uM GlcN6P
inequality symbol: =
reported value: 0.000738
--
biosequence: AUAAAAGCACCAGAACUACAGAAAUGUAGUUGACGAGGAGGAAGUUUAUCGAAUUUACGGCGGAAGCCACAAAA [G9A G43A U57A U65A U69A C71A]
endpoint: self-cleavage kobs at 10000 uM GlcN6P
inequality symbol: <
reported value: 1e-05
--
biosequence: AUAAAAGCGCCAGAACUACAGAAAUGUAGUUGACGAGGAGGAUGUUUCUCGAAUUUUCGGCGGAUGCCUCCAAA [G43U A48C]
endpoint: self-cleavage kobs at 10000 uM GlcN6P
inequality symbol: <
reported value: 1e-05
--
biosequence: AUAAAAGCGCCAAAACUACAGAAAUGUAGUUGACGAGGAGGAGGUUUAUCUAAUUUUCGUCGGAUGCCUCCAAA [G13A G51U G60U]
endpoint: self-cleavage kobs at 10000 uM GlcN6P
inequality symbol: <
reported value: 1e-05
--
biosequence: AUAAAAGCGCCCGAACUACAGAAAUGUAGUUGACGAGGAGGAGUUUUAUCGAAUUUUCGGCGGAUGCCUCCAAA [A12C G44U]
endpoint: self-cleavage kobs at 10000 uM GlcN6P
inequality symbol: =
reported value: 0.000382
--
biosequence: AUAAAAGCGCCAGAACUACAGAAAUGUAGUUGACGAGGAGGAGGGUUAUCGAAUUUUCGGCGGAUGCCUCAAAA [U45G C71A]
endpoint: self-cleavage kobs at 10000 uM GlcN6P
inequality symbol: =
reported value: 0.000766
--
biosequence: AUAAAAGCGCGAGCACUACAGAAAUGUAGUUGACGAGGAGGAUGUUUAUCGAAUUUUCGGCGGAUGCCUCCAAA [C11G A14C G43U]
endpoint: self-cleavage kobs at 10000 uM GlcN6P
inequality symbol: <
reported value: 1e-05
